Reference source for all entries: patent US20110300156A1

IC50, inhibition of blood coagulation (TF induced clotting time) for assorted binders
# measured.target: TF (Innovin) (UniProt P13726 33-295, limits assumed)
# test.protocol: cell-based or functional assay
Numeric only. Scale: nM

anti-TF HuMab 013 (antibody, V domains shown, Human monoclonal antibody from HuMab mice; also called HuMab-TF-13) VH: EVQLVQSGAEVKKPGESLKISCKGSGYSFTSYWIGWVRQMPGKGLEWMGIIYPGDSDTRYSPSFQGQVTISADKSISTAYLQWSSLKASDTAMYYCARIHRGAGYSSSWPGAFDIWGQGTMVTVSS VL: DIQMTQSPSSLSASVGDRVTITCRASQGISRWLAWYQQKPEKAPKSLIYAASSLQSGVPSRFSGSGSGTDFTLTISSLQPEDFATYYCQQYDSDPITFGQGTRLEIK : 0.6
anti-TF HuMab 011 (antibody, V domains shown, Human monoclonal antibody from HuMab mice; also called HuMab-TF-11) VH: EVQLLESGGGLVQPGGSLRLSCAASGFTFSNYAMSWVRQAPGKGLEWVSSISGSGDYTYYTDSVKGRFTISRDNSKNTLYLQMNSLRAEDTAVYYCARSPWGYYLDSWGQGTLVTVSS VL: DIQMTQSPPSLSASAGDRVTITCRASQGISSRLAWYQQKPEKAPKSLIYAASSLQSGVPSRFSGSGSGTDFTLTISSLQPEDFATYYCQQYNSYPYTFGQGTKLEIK : 1.6
anti-TF HuMab 025 (antibody, V domains shown, Human monoclonal antibody from HuMab mice) VH: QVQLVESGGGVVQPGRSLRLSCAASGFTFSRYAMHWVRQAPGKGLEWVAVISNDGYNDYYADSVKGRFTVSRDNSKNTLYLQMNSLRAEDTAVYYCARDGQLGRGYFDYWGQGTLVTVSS VL: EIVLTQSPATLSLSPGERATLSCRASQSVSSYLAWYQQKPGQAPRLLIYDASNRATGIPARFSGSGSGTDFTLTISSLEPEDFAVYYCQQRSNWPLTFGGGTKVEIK : 2.3

Briefly, IC50, inhibition of blood coagulation (TF induced clotting time) measured for anti-TF HuMab 101 (antibody, V domains shown, Human monoclonal antibody from HuMab mice) VH: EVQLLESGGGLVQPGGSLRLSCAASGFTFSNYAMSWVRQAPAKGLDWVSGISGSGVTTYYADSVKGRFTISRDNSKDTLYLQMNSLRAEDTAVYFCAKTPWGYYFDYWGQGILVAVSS VL: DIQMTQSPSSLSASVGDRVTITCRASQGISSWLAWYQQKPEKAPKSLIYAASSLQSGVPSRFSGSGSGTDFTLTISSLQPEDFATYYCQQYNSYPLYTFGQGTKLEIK : 0.7
